Test: Guinea pig PK after transtympanic delivery (perilymph and cochlea, LC/MS/MS)
Assay type: in vivo
Details: male, Hartley, cochlea, other: transtympanic, 30 μL, Crystalline form (Example 5(c)), 30 μL transtympanic, Day 7, LLOQ = 0.08 μM, read-out: Cochlea Average concentration
Description: Male Hartley guinea pigs (300-350 g) were anesthetized with ketamine and xylazine. Thirty microliters of an aqueous pharmaceutical composition of the instant embodiments was delivered transtympanically to deposit the drug to the round window membrane. […] At various timepoints after administration, the animals were euthanized by CO2 inhalation. […] All tissues collected were analyzed using LC/MS/MS for test compound concentration as follows. […] The supernatants were analyzed using LC-MS/MS. […]
Outcome measure: concentration at 7 day (µM)
Numeric only. Scale: µM

Task: Provide measured concentration at 7 day value, entry: CN1C(=O)[C@@H](NC(=O)[C@](C)(F)C(=O)NCC(F)(F)C(F)(F)F)c2ccccc2-c2ccccc21
Output: 46.1
